pIC50, human CYP1A2 (Homo sapiens): measured values
Scale explanation: pIC50 corresponds to minus log10 of a concentration expressed in moles per litre.

Data request: Need pIC50 of `Clc1ccc2c(c1)Nc1ccccc1S2` , thanks.
Data returned: 6.36

Data request: What do you have for CCOC(=O)c1c(C)n(C)c2ccc(O)cc12 [Mecarbinate] ?
Data returned: 6.27

Data request: What do you have for Cc1cc(-c2cc(C)c(N)c(C)c2)cc(C)c1N [3,3',5,5'-Tetramethylbenzidine] ?
Data returned: 6.62

Data request: What do you have for CN1CCN(C2Cc3ccccc3Sc3ccc(Cl)cc32)CC1.O=C(O)/C=C\C(=O)O (stereo not shown) [Octoclothepine maleate] ?
Data returned: 4.55

---

Where a name gives a salt, the structure may show the parent alone.
CYP3A4 IC50 (half-maximal inhibitory concentration), CYP3A4 (Homo sapiens, UniProt P08684): measured values

Before answering, review these 10 worked examples.
CSC(=O)c1cccc2nnsc12 = Inactive
O=[N+]([O-])c1ccc2ccc3cccc4ccc1c2c34 = Inactive
CC(CN1c2ccccc2Sc2ccccc21)N(C)C (stereo not drawn) [Promethazine hydrochloride] = Inactive
CC(C)(Cc1c[nH]c2ccccc12)NCC(O)COc1ccccc1C#N (stereo not drawn) = Inactive
CCOP(=O)(OCC)OC(=CCl)c1ccc(Cl)cc1Cl = 1.18 ± 0.21 (70 ± 1) µM
CCCCc1cc2ccccc2c(OCCN(C)C)n1 [Dimethisoquin hydrochloride] = Inactive
OC(c1ccc(Cl)cc1)(c1ccc(Cl)cc1)C(Cl)(Cl)Cl = Inactive
O=C1c2ccccc2C(=O)c2ccccc21 = Inactive
Brc1ccc(Oc2ccc(Br)cc2Br)c(Br)c1 = 13.01 ± 6.86 (68 ± 8) µM
ClC(Cl)=C(c1ccc(Cl)cc1)c1ccc(Cl)cc1 = Inactive

Data request: Need CYP3A4 IC50 (half-maximal inhibitory concentration) of CCOC(=O)c1ccc(OC(=O)CCCCCN=C(N)N)cc1.CS(=O)(=O)O [Gabexate mesilate] , thanks.
Data returned: 21.25 ± 8.41 (37 ± 5) µM

Data request: What do you have for ClC(c1ccccc1)(c1ccccc1)c1ccccc1 [Trityl chloride] ?
Data returned: 6.9 ± 1.18 (56 ± 3) µM

Data request: What do you have for `Fc1ccc(Oc2ccnc3cc(Cl)cc(Cl)c23)cc1` ?
Data returned: Inactive

Data request: What do you have for `COC(=O)N(OC)c1ccccc1COc1ccn(-c2ccc(Cl)cc2)n1` ?
Data returned: 1.31 ± 0.09 (52 ± 7) µM

Data request: What do you have for CCn1ccnc1CC1COc2ccccc2O1 (stereo not drawn) ?
Data returned: Inactive

Data request: What do you have for `CN1[C@@H]2CC[C@H]1C[C@@H](OC(=O)c1cc(Cl)cc(Cl)c1)C2` ?
Data returned: Inactive

Data request: What do you have for `CO/C=C(/C(=O)OC)c1ccccc1COc1cccc(C(F)(F)F)n1` ?
Data returned: 2.32 ± 0.75 (38 ± 1) µM

Data request: What do you have for `Clc1ccc2c(c1)Nc1ccccc1S2` ?
Data returned: Inactive

Data request: What do you have for `CCN(CC)c1c([N+](=O)[O-])cc(C(F)(F)F)c(N)c1[N+](=O)[O-]` ?
Data returned: Inactive

Data request: What do you have for `O[Si](c1ccccc1)(c1ccccc1)c1ccccc1` ?
Data returned: 13.71 ± 1.89 (172 ± 26) µM

Data request: What do you have for `COC(=O)c1cc(Cl)ccc1NS(=O)(=O)C(F)(F)F` ?
Data returned: Inactive

# credit: paper PMC12155096
